All figures here come from patent US20240360228A1.

Molecular target: T1, human CCR8 (human, UniProt P51685 1-355)
T1 construct: Native CCR8 on human PBMC (CCR8+ CD3+ or CCR8+ CD4+ lymphocytes); also called chemokine (C-C motif) receptor 8
T1 sequence (P51685 whole entry): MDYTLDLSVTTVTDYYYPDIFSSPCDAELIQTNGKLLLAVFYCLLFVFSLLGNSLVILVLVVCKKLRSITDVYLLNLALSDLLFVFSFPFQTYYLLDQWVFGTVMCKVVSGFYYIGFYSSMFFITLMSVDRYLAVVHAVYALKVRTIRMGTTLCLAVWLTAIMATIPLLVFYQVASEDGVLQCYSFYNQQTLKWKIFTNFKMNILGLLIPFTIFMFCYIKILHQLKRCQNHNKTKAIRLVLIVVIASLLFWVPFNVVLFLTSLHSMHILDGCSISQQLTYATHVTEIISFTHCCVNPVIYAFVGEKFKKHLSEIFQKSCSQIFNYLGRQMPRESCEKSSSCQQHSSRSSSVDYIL
Experiment: flow blocking, PBMC CCR8+CD4+; competitor PE-AB2
Experimental: For blocking studies, 100 μL of the cell suspension were incubated with 10 μg purified isotype control, AB1, AB2, AB3, AB4, AB5, AB8, AB9, AB10, AB11, AB12, AB13, AB14, AB15, and Commercial ABI antibodies, or isotype control, as blocking agents. […]
READOUT: % Positive cells (%)
// units = %; emit number, no label

{"columns": ["BINDER", "% Positive cells / %"],
 "data": [
  ["AB13 (antibody, V domains shown, Hybridoma monoclonal; also called antibody 13; clone 13) VH: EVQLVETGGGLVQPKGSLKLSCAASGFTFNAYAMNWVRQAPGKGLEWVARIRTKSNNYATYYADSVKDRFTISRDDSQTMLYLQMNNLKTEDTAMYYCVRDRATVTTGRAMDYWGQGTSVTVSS VL: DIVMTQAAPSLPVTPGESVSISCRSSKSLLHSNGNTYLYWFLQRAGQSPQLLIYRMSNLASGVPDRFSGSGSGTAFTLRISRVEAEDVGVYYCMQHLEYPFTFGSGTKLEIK", 2.19]
]}

Turning now to a further record.
Give its % Positive cells value. Item: AB15 (antibody, V domains shown, Hybridoma monoclonal; Same VH/VL entries as AB14; also called antibody 15; clone 15) VH: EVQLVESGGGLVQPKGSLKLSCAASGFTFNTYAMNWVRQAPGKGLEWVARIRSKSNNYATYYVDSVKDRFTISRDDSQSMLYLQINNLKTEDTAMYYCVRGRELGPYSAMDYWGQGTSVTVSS VL: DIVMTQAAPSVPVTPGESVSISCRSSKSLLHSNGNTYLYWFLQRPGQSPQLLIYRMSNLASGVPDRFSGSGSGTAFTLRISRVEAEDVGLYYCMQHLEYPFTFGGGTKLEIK
2.1
